# key: entry, value: pEC50
- System: NQO1 specific enzyme activity in BEAS-2B cells
- TEST: BEAS-2B NQO1 MTT assay
- Assay type: cell-based
- CONDITION_LABEL: Homo sapiens, BEAS-2B, 48 h, BEAS-2B cells, 48 hours with compound, MTT readout; read-out: EC50 of NQO1 specific activity induction
pEC50: −log10 of the molar value. Counter-ions that a name gives are not always drawn.
MEASURED_ATTRIBUTE: pEC50

CC[C@@H]1CN(Cc2cc([C@@H](c3ccc4c(nnn4C)c3C)C(C)(C)C(=O)O)ccc2C)Cc2ccccc2O1 [Example 26, trifluoroacetic acid salt] : 8.00 to 9.00
Cc1ccc(C(CC(=O)O)c2ccc3c(nnn3C)c2C)cc1Cn1ccnc1C(C)C1CCCCC1 (stereo not shown) : 6.00 to 7.00
COc1ccc2c(c1)CN(Cc1cc([C@@H](CC(=O)O)c3ccc4c(nnn4C)c3C)ccc1C)CC(C)(C)O2 : 7.00 to 8.00
Cc1ccc([C@H](CC(=O)O)c2ccc3c(nnn3C)c2C)cc1CN1Cc2ccc(F)cc2OC(C)(C)C1 : 7.00 to 8.00
Cc1ccc(C(CC(=O)O)c2ccc3c(nnn3C)c2C)cc1Cn1ccnc1CC1CCOCC1 (stereo not shown) : 6.00 to 7.00
CC[C@@H]1CN(Cc2cc([C@H](CC(=O)O)c3ccc4c(nnn4CC)c3Cl)ccc2C)Cc2ccccc2O1 : 7.00 to 8.00
CCC1CCN(Cc2nccn2Cc2cc(C(CCc3cn(CC)nn3)C(C)(C)C(=O)O)ccc2Cl)CC1 (stereo not shown) : 8.00 to 9.00

====

- Tested on: NQO1 specific enzyme activity in BEAS-2B cells
- TEST: BEAS-2B NQO1 MTT assay
- Format: cell-based
- CONDITION_LABEL: Homo sapiens, BEAS-2B, 48 h, BEAS-2B cells, 48 hours with compound, MTT readout; read-out: EC50 of NQO1 specific activity induction
Structures can show the parent of a compound that is named as a salt.
MEASURED_ATTRIBUTE: EC50

CCC1CN(Cc2cc([C@H](c3ccc4c(nnn4C)c3C)C(C)C(=O)O)ccc2C)Cc2ccccc2O1 (some centres unmarked) [Example 102] : < 1 nM
Cc1ccc2c(c1)CN(Cc1cc([C@H](CC(=O)O)c3ccc4c(nnn4C)c3C)ccc1C)CC(C)(C)O2 [Example 176] : 10 to 100 nM
Cc1ccc(C(c2ccc3c(nnn3C)c2C)C(C)(C)C(=O)O)cc1Cn1ccnc1CN1CCCCC1 (centres unmarked) [Example 123, Sodium salt] : 10 to 100 nM
Cc1ccc(C(CC(=O)O)c2ccc3c(nnn3C)c2C)cc1Cn1ccnc1CN1CCCCCC1 (centres unmarked) [Example 147, formic acid salt] : 1000 to 10000 nM
Cc1ccc(C(CC(=O)O)c2ccc3c(nnn3C)c2C)cc1CN1CCCC(S(=O)(=O)c2ccccc2)C1 (centres unmarked) [Example 185] : 10 to 100 nM

====

# key: entry, value: EC50
- System: NQO1 specific enzyme activity in BEAS-2B cells
- TEST: BEAS-2B NQO1 MTT assay
- Format: cell-based
- CONDITION_LABEL: Homo sapiens, BEAS-2B, 48 h, BEAS-2B cells, 48 hours with compound, MTT readout; read-out: EC50 of NQO1 specific activity induction
Structures can show the parent of a compound that is named as a salt.
MEASURED_ATTRIBUTE: EC50

CC[C@@H]1CN(Cc2cc([C@@H](c3ccc4c(nnn4C)c3C)C(C)(C)C(=O)O)ccc2C)Cc2cnc(Cl)cc2O1 : < 1 nM
CC[C@@H]1CN(Cc2cc([C@H](c3ccc4c(nnn4CC)c3C)C(C)(C)C(=O)O)ccc2C)Cc2cnccc2O1 : 1 to 10 nM
CC[C@@H]1CN(Cc2cc(C(CC(=O)O)c3ccc4c(nnn4C)c3C)ccc2C)Cc2cc(C)ccc2O1 (some centres unmarked) : 10 to 100 nM
CC[C@@H]1CN(Cc2cc(C(c3ccc4c(nnn4C)c3C)C(C)(C)C(=O)O)ccc2C)Cc2ccc(F)cc2O1 (some centres unmarked) [Example 33, formic acid salt] : 10 to 100 nM
COc1cc(C(CC(=O)O)c2ccc(Cl)c(CN3CCCC(n4cccn4)C3)c2)c(C)c2nnn(C)c12 (centres unmarked) [Example 164, Formic Acid Salt] : 100 to 1000 nM
Cc1ccc([C@H](c2ccc3c(nnn3C)c2C)[C@H](C)C(=O)O)cc1CN1Cc2cnccc2OC(C)(C)C1 [Example 198, formic acid salt] : 10 to 100 nM
Cc1ccc(C(c2ccc3c(nnn3C)c2C)C(C)(C)C(=O)O)cc1CN1Cc2ccccc2OC(C)(C)C1 (centres unmarked) [Example 8, Formic Acid Salt] : 1 to 10 nM
Cc1ccc(C(CC(=O)O)c2ccc3c(nnn3C)c2C)cc1CN1Cc2ccccc2OC(C(C)C)C1 (centres unmarked) [Example 72, formic acid salt] : 1000 to 10000 nM
Cc1c(C(CC(=O)O)c2ccc(F)c(CN3Cc4ncccc4OC(C)(C)C3)c2)ccc2c1nnn2C (single isomer, unassigned; isomer 1) : 100 to 1000 nM
CCn1nnc2c(C)c([C@@H](c3ccc(C)c(CN4Cc5ccccc5OC(C)(C)C4)c3)C(C)(C)C(=O)O)ccc21 (single isomer, unassigned; enantiomer a) : 1 to 10 nM
Cc1ccc([C@@H](c2ccc3c(nnn3C)c2C)C(C)(C)C(=O)O)cc1CN1Cc2ncccc2OC(C)(C)C1 [Example 30, formic acid salt] : 1 to 10 nM
Cc1ccc(C(c2ccc3c(nnn3C)c2C)C(C)(C)C(=O)O)cc1Cn1ccnc1CN1CCOCC1 (centres unmarked) [Example 142, trifluoroacetic acid salt] : 100 to 1000 nM
CC[C@@H]1CN(Cc2cc([C@@H](c3ccc4c(nnn4C)c3C)[C@H](C)C(=O)O)ccc2C)Cc2ccccc2O1 : 100 to 1000 nM
COc1ccc(C2COCCN2Cc2cc(C(CC(=O)O)c3ccc4c(nnn4C)c3C)ccc2C)cc1 (centres unmarked) [Example 21, formic acid salt] : 1000 to 10000 nM
CCn1nnc2c(Cl)c([C@@H](CC(=O)O)c3ccc(C)c(CN4Cc5ccccc5OC(C)(C)C4)c3)ccc21 [Example 54, hydrochloride] : 10 to 100 nM
CC[C@@H]1CN(Cc2cc([C@@H](c3ccc4c(nnn4CC)c3C)C(C)(C)C(=O)O)ccc2C)Cc2cnccc2O1 : < 1 nM
CC[C@@H]1CN(Cc2cc(C(CC(=O)O)c3ccc4c(nnn4C)c3C)ccc2C)Cc2ccccc2O1 (some centres unmarked) [Example 73, formic acid salt] : 100 to 1000 nM
Cc1ccc([C@@H](c2ccc3c(nnn3C)c2C)C(C)(C)C(=O)O)cc1Cn1ccnc1CN1CCCCCC1 [Example 126, Sodium salt] : 1 to 10 nM
Cc1ccc(C(c2ccc3c(nnn3C)c2C)C(C)(C)C(=O)O)cc1CN1CCOc2ccccc2C1 (centres unmarked) [Example 44, Formic Acid Salt] : 10 to 100 nM
Cc1ccc(C(CC(=O)O)c2ccc3c(nnn3C)c2C)cc1Cn1ccnc1CN1CCCCC1 (centres unmarked) [Example 154, Trifluoroacetic Acid Salt] : 100 to 1000 nM
